pIC50 values for the compounds below.
test system: Neisseria gonorrhoeae; test: EC50 determination: plate-based broth growth assay (absorbance at 600 nm) of Neisseria gonorrhoeae; format: cell-based; conditions: absorbance 600 nm after 20 hours at 37° C./5% CO2, read-out: IC50 (Inhibitory concentration) against Neisseria gonorrhoeae
pIC50: −log10 of the molar value. Counter-ions that a name gives are not always drawn.

Example compounds with recorded pIC50:
### Prompt Return reported pIC50; argument: Cc1nnc(Nc2nc3cc(Cl)ccc3o2)o1 [Example 50]
### Response ≥ 7.00

### Prompt And for Cc1nnc(Nc2nc3ccc(C(F)(F)F)cc3[nH]2)o1 [Example 83] ?
### Response ≥ 6.00

### Prompt Same read-out for COc1cc2nc(Nc3nnco3)oc2cc1Cl [Example 204] ?
### Response ≥ 6.00

Others:
### Prompt // query pIC50 value for entry NC(=O)c1nnc(Nc2nc3ccc(F)cc3o2)o1 [Example 201]
### Response ≥ 4.00

### Prompt And then FC(F)(F)c1ccc2oc(Nc3nnc[nH]3)nc2c1 [Example 116] , what is it?
### Response ≥ 6.00

### Prompt Then this compound: NC(=O)c1nnc(Nc2nc3cc(F)ccc3o2)o1 [Example 202]
### Response ≥ 3.70

### Prompt Next compound up: CN(C)Cc1nnc(Nc2nc3cc(C(F)(F)F)ccc3o2)[nH]1 [Example 136]
### Response ≥ 6.00

### Prompt Continue with FC(F)(F)c1ccc2oc(Nc3nnc(CN4CCCC4)o3)nc2c1 [Example 71]
### Response ≥ 6.00

### Prompt # iterate: FC(F)(F)c1cc2oc(Nc3nc4cc(Cl)ccc4o3)nc2cn1 [Example 165]
### Response ≥ 6.00

### Prompt Do the same for Clc1ccc2nc(Nc3nc4cnccc4o3)oc2c1 [Example 159] please
### Response ≥ 4.00

### Prompt Next: Clc1ccc2oc(Nc3nnco3)nc2c1 [Example 135]
### Response ≥ 7.00

### Prompt Same question, FC(F)(F)c1ccc2oc(Nc3nnc([C@@H]4CCCN4)o3)nc2c1 [Example 146, hydrochloride] this time
### Response ≥ 6.00

### Prompt Queued: Cc1nnc(Nc2nc3ccc(C(F)(F)F)cc3n2C)o1 [Example 89]
### Response ≥ 6.00

### Prompt Also Cn1cc(Nc2nc3cc(C(F)(F)F)ccc3o2)nn1 [Example 12] , if possible.
### Response ≥ 5.00

### Prompt What do you get for O=C(Nc1cccc(F)c1)c1csc(Nc2nc3cc(C(F)(F)F)ccc3o2)n1 [Example 9] ?
### Response ≥ 6.00

### Prompt Okay, and O=C(Nc1cccc(Cl)c1)c1csc(Nc2nc3cc(C(F)(F)F)ccc3o2)n1 [Example 10] ?
### Response ≥ 6.00

### Prompt Thanks! And Clc1cccc2nc(Nc3nnco3)oc12 [Example 57] ?
### Response ≥ 6.00

### Prompt Likewise for CC1CCCN1Cc1nnc(Nc2nc3cc(C(F)(F)F)ccc3o2)o1 (stereo not shown) [Example 73] ?
### Response ≥ 6.00

### Prompt And O=C(O)c1nc(Nc2nc3ccc(Cl)cc3o2)co1 [Example 182] ?
### Response ≥ 4.00

### Prompt Try FC(F)(F)c1ccc2oc(Nc3nnc(CN4CCNCC4)o3)nc2c1 [Example 147, hydrochloride] next.
### Response ≥ 4.00

Origin of values: patent US20190194179A1
